Data origin, for the record: patent US11753407B2

quantity-kind: melting point

For orientation, consider the following solved cases.
* COc1ccc(-c2cc(=O)n3cc(N4CC[C@H](N(C)C)C4)ccc3n2)cc1F | 187 to 192 °C
* CCN1CCC(c2ccc3nc(-c4ccc5nc(C)cn5c4)cc(=O)n3c2)CC1 | 190 to 192 °C

Ask: Which melting point value is on record for Cc1cn2nc(-c3cc(=O)n4cc(C5CCN(C6CCC6)CC5)ccc4n3)cc2c(C)n1 ?
Result: 189 to 191 °C

Ask: Which melting point value belongs to CCN1CC=C(c2ccc3nc(-c4ccc5nc(C)cn5c4)cc(=O)n3c2)CC1 ?
Result: 220 to 223 °C

Ask: Quick one: melting point of Cc1cn2nc(-c3cc(=O)n4cc(C5=CCN(C)CC5)ccc4n3)cc2c(C)n1 ?
Result: 193 to 197 °C

Ask: Which value of melting point has been reported for Cc1cn2cc(-c3cc(=O)n4nc(C5CCNCC5)ccc4n3)ccc2n1 in the records?
Result: 249 to 251 °C

Ask: Quick one: melting point for CCc1nc(C)cn2nc(-c3cc(=O)n4cc(N5CCN[C@H](C)C5)ccc4n3)cc12 ?
Result: 185 to 188 °C

Ask: Quick one: melting point of Cc1nc2ccc(-c3cc(=O)n4nc(C5CCNCC5)ccc4n3)cc2s1.O=C(O)C(F)(F)F ?
Result: 230 to 235 °C

Ask: I am curious: what melting point value has been reported for COc1ccc(-c2cc(=O)n3cc(C4=C[C@H]5CC[C@@H](C4)N5)ccc3n2)cc1OC ?
Result: 191 to 194 °C

Ask: Field request: melting point | item: COc1ccc(-c2ccc3nc(N4CCC(N)CC4)cc(=O)n3c2)cc1F
Result: 268 to 283 °C

Ask: # get_value(readout='melting point', item= O=c1cc(-c2ccc3c(c2)OCO3)nc2ccc(N3CCNCC3)cn12 )
Result: 198 to 201 °C

###

Recorded EC (1.5-fold increase) for the following compounds
system: SMN2 minigene mRNA (SMN2-A minigene) in HEK293H cells; test: SMN2 minigene mRNA splicing RT-qPCR assay in cultured cells; format: cell-based, human; settings: Homo sapiens, HEK293-H; concentration increasing full length SMN2 mRNA 1.5-fold relative to vehicle-treated cells; HEK293H cells with SMN2-A minigene, 24 hours, 7-point concentration data; read-out: EC1.5x for production of full length SMN2 mRNA

• Cc1cc(-c2cc(=O)n3cc(N4CCN[C@@H](C)C4)ccc3n2)cc2cn(C)nc12 = < 0.1 µM
• Cc1cn2nc(-c3cc(=O)n4cc(C5CCN(C)CC5)ccc4n3)cc2c(C)n1 = < 0.1 µM
• Cc1cn2nc(-c3cc(=O)n4cc(N5CCC6C(CCN6CCO)C5)ccc4n3)cc2c(C)n1 (centres unmarked) = < 0.1 µM
• COc1ccc(-c2cc(=O)n3cc(C4=CCN(C)CC4)ccc3c2)cc1OC = 0.3 to 1 µM

Ask: Lab note: need EC (1.5-fold increase) for COc1ccc(-c2cc(=O)n3cc(O[C@H]4CCNC4)ccc3n2)cc1OC on SMN2 minigene mRNA (SMN2-A minigene) in HEK293H cells, anyone have it?
Result: 1 to 3 µM

Ask: Hi! What's the reported EC (1.5-fold increase) for Cc1cc(C2CCN(C3CCC3)CC2)cn2c(=O)cc(-c3ccc4nn(C)cc4c3)nc12 on SMN2 minigene mRNA (SMN2-A minigene) in HEK293H cells?
Result: < 0.1 µM

Ask: # returns recorded EC (1.5-fold increase) (system: SMN2 minigene mRNA (SMN2-A minigene) in HEK293H cells) for CN1CCN(c2ccc3nc(-c4ccc5nccn5c4)cc(=O)n3c2)CC1
Result: 1 to 3 µM

Ask: Form: Entry = Cc1nc2ccc(-c3cc(=O)n4cc(N5CC[C@H](N(C)C)C5)ccc4n3)cc2o1 | System = SMN2 minigene mRNA (SMN2-A minigene) in HEK293H cells | EC (1.5-fold increase) = ____
Result: 0.1 to 0.3 µM

Ask: GET /values?readout=EC (1.5-fold increase)&system=SMN2 minigene mRNA (SMN2-A minigene) in HEK293H cells&item= Cc1cn2cc(-c3cc(=O)n4cc(N5CCN(C6CC6)[C@@H](C)C5)ccc4n3)cc(F)c2n1
Result: < 0.1 µM

Ask: Under SMN2 minigene mRNA (SMN2-A minigene) in HEK293H cells: EC (1.5-fold increase) value of CNC1CC=C(c2ccc3nc(-c4ccc(OC)c(OC)c4)cc(=O)n3c2)CC1 (centres unmarked) ?
Result: < 0.1 µM

Ask: Please provide the recorded EC (1.5-fold increase) for C[C@H]1CN(c2ccc3nc(-c4cnn(C)c4)cc(=O)n3c2)CCN1 , tested on SMN2 minigene mRNA (SMN2-A minigene) in HEK293H cells.
Result: 1 to 3 µM

Ask: // lookup EC (1.5-fold increase) | system=SMN2 minigene mRNA (SMN2-A minigene) in HEK293H cells | key= COc1ccc(-c2cc(=O)n3cc(C4=CCNCC4)cc(C)c3n2)cc1F
Result: < 0.1 µM

Ask: Recorded EC (1.5-fold increase) for Cc1cn2cc(-c3cc(=O)n4cc(C5=CCN(C)CC5)ccc4n3)ccc2n1 with SMN2 minigene mRNA (SMN2-A minigene) in HEK293H cells, please?
Result: < 0.1 µM

Ask: Please tell me: EC (1.5-fold increase) of Cc1cn2cc(-c3cc(=O)n4cc(C5CCNCC5)ccc4n3)ccc2n1 , system SMN2 minigene mRNA (SMN2-A minigene) in HEK293H cells?
Result: < 0.1 µM

Ask: For the record O=c1cc(-c2ccc3cc[nH]c3c2)nc2ccc(N3CCNCC3)cn12 , what value of EC (1.5-fold increase) is listed for SMN2 minigene mRNA (SMN2-A minigene) in HEK293H cells?
Result: 1 to 3 µM

Ask: For SMN2 minigene mRNA (SMN2-A minigene) in HEK293H cells, provide EC (1.5-fold increase) of CN(C)c1ccc(-c2cc(=O)n3cc(C4CCNCC4)ccc3n2)cn1 please.
Result: 0.3 to 1 µM

###

test system: SMN2 minigene mRNA (SMN2-A minigene) in HEK293H cells; assay: SMN2 minigene mRNA splicing RT-qPCR assay in cultured cells; format: cell-based, human; details: Homo sapiens, HEK293-H; concentration increasing full length SMN2 mRNA 1.5-fold relative to vehicle-treated cells; HEK293H cells with SMN2-A minigene, 24 hours, 7-point concentration data; read-out: EC1.5x for production of full length SMN2 mRNA
In this section, each of the compounds is paired with its reported EC (1.5-fold increase).

Some solved entries appear below for comparison.
• CCc1nc(C)cn2cc(-c3cc(=O)n4cc(N5CCCNCC5)ccc4n3)cc12 = < 0.1 µM
• COc1ccc(-c2cc(=O)n3cc(N4CCN[C@H](C)C4)ccc3n2)cc1C(F)(F)F = 0.1 to 0.3 µM
• CCc1nc(C)cn2nc(-c3cc(=O)n4cc(C5CCN(CC)CC5)cc(C)c4n3)cc12 = < 0.1 µM
• CCN1CCN(c2ccc3nc(-c4ccc5nc(C)[nH]c5c4)cc(=O)n3c2)CC1 = < 0.1 µM

Ask: Reported EC (1.5-fold increase) for O=c1cc(-c2ccc3nc(C(F)(F)F)cn3c2)nc2ccc(N3CCNCC3)cn12 : what is it?
Result: 1 to 3 µM

Ask: Which EC (1.5-fold increase) value belongs to Cc1cn2cc(-c3cc(=O)n4cc(N5CCN[C@@H](C)C5)ccc4n3)nc2c(C)n1 ?
Result: 0.1 to 0.3 µM

Ask: Need EC (1.5-fold increase), item Cn1ncc2cc(-c3cc(=O)n4cc(C5=CCNCC5)ccc4n3)ccc21
Result: < 0.1 µM

Ask: Recorded EC (1.5-fold increase) of COc1cccc(-c2cc(=O)n3cc(N4CCN[C@H](C)C4)ccc3n2)c1 , please.
Result: 1 to 3 µM

Ask: Field request: EC (1.5-fold increase) | item: Cc1ccc2nc(-c3cc(=O)n4cc(N5CCNCC5)ccc4n3)cn2c1
Result: 3 to 30 µM

Ask: Request the reported EC (1.5-fold increase) associated with COc1ccc(-c2cc(=O)n3cc(N4CCN[C@@H](C)C4)cc(C)c3n2)cc1F
Result: < 0.1 µM

Ask: Record request: EC (1.5-fold increase) value, item Cc1cn2nc(-c3cc(=O)n4cc(N5CCC(N6CCCCC6)CC5)ccc4n3)cc2c(C)n1
Result: 0.3 to 1 µM

Ask: Could you share which EC (1.5-fold increase) value was measured for Cc1cn2ccc(-c3cc(=O)n4cc(C5CCNCC5)ccc4n3)cc2n1 ?
Result: 0.3 to 1 µM

Ask: I am curious: what EC (1.5-fold increase) value has been reported for Cc1cc2cc(-c3cc(=O)n4cc(N5CCN[C@@H](C)C5)ccc4n3)oc2c(C)n1 ?
Result: < 0.1 µM

Ask: Given the entry COc1ncc(-c2cc(=O)n3cc(N4CCNCC4)ccc3n2)cc1Cl , report its measured EC (1.5-fold increase).
Result: 0.3 to 1 µM

Ask: Consider the compound shown here: CCc1nc2ccc(-c3cc(=O)n4cc(N5CCNCC5)ccc4n3)cc2o1 What is its recorded EC (1.5-fold increase)?
Result: 1 to 3 µM

Ask: // query EC (1.5-fold increase) value for entry COc1ccc(-c2cc(=O)n3cc(C4=CCN(C)CC4)cc(C)c3n2)cc1F
Result: < 0.1 µM

Ask: What measured EC (1.5-fold increase) goes with Cc1cn2cc(-c3cc(=O)n4cc(N5CCN6CCC[C@H]6C5)ccc4n3)cc(F)c2n1 ?
Result: < 0.1 µM
